- study system: NOP receptor (NOP-RLuc/β-arrestin 2-RGFP) (Homo sapiens, UniProt P41146)
- Construct: expressed in transfected cells; host or cells: HEK293 (whole cells)
- Sequence (P41146 whole entry): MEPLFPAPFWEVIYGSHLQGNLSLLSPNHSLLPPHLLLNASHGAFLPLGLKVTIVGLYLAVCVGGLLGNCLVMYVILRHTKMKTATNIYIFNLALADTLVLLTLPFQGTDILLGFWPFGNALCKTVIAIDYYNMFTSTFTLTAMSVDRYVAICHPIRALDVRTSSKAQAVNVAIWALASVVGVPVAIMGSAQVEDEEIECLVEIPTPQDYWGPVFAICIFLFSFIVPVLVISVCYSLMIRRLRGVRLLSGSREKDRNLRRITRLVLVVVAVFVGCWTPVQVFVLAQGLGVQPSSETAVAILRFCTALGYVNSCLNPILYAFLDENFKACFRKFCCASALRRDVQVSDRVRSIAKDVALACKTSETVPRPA
- method summary: NOP/β-arrestin 2 interaction, BRET assay in whole cells
- Format: cell-based
- test settings: BRET; whole HEK293 cells co-expressing NOP-RLuc/β-arrestin 2-RGFP, 100,000 cells/well; room temperature; mean of five independent experiments in duplicate, 95% confidence limits
- Experimental: For this study, human embryonic kidney (HEK293) cells, permanently co-expressing the different pairs of fusion proteins NOP-RLuc/Gβ1-RGFP and NOP-RLuc/β-arrestin 2-RGFP, and SH-SY5Y cells stably, co-expressing the different pairs of fusion proteins mu-RLuc/Gβ1-RGFP and mu-RLuc/β-arrestin 2-RGFP or delta-RLuc/Gβ1-RGFP and delta-RLuc/β-arrestin 2-RGFP, were used. Cells were prepared and cultured, as described previously.[19],[23] […]
No end group written: not given here.
parameter: NOP/β-arrestin 2 pEC50 (CL95%)

substance | parameter | value
LGGFTGARKSARK-NH2 [Compound 23, [Leu^1]N/OFQ(1–13)-NH2] | NOP/β-arrestin 2 pEC50 (CL95%) | 7.87 (7.69–8.04)
[Ala^8]N/OFQ(1–13)-NH2 (FGGFTGAAKSARK-NH2) [Compound 7] | NOP/β-arrestin 2 pEC50 (CL95%) | inactive
FGGFTGARKSARA-NH2 [Compound 11, [Ala^13]N/OFQ(1–13)-NH2] | NOP/β-arrestin 2 pEC50 (CL95%) | 7.88 (7.75–8.01)
FGGFTGARASARK-NH2 [Compound 8, [Ala^9]N/OFQ(1–13)-NH2] | NOP/β-arrestin 2 pEC50 (CL95%) | 7.77 (7.43–8.11)
[Ala^4]N/OFQ(1–13)-NH2 (FGGATGARKSARK-NH2) [Compound 4] | NOP/β-arrestin 2 pEC50 (CL95%) | inactive

Ref: paper PMC8011926
